Target: rat Adrenergic, Alpha 1, Non-selective Receptor (Adra1), Adra1a (gene 29412)
Assay: NVS_GPCR_rAdra1_NonSelective: NovaScreen (NVS) G Protein-Coupled Receptor Assay for rat Adrenergic, Alpha 1, Non-selective Receptor (Adra1) (AID 2283289)
Results filed as inconclusive are left out. Activity calls are given as the source filed them. How the source made its calls: active means hit-call score of the fitted dose curve at least 0.9, where 1 is the maximum; inconclusive means response in the unintended direction; inactive means score below 0.9.
Outcomes: active, inactive

# entrySmiles, class
rows = [
    ("NC(=Nc1ccccc1)Nc1ccccc1", "inactive"),
    ("O=C(N[C@@H](c1ccccc1)[C@@H]1CCCCN1)c1cccc(C(F)(F)F)c1Cl", "inactive"),
    ("Cc1ccc(C(C)(C)C)c(O)c1", "inactive"),
    ("CCc1nc(N)nc(N)c1-c1ccc(Cl)cc1", "active"),
    ("CSc1ccc(Oc2ccc(S(N)(=O)=O)cc2CN(C)C)cc1C", "active"),
]

###

Read-out: 3-Hydroxy-3-Methylglutaryl-CoA Synthase 2 (HMGCS2), HMGCS2 (gene 3158)
Test: LTEA_HepaRG_HMGCS2: Life Technologies and Expression Analysis (LTEA) Assay for 3-Hydroxy-3-Methylglutaryl-CoA Synthase 2 (HMGCS2) using HepaRG (AID 2283504)
Conditions: mRNA level, 48 h; actives raise or lower the signal
Calls of active or inactive are those of the source. Rule for the calls: active = hit-call score of the fitted dose curve at least 0.9, where 1 is the maximum; inactive = score below 0.9.
Labels: active, inactive

# molecule, class
data = [
    ("CC1(C)C(=O)NC(=O)N1CO", "inactive"),
    ("NC(=Nc1ccccc1)Nc1ccccc1", "inactive"),
    ("Cc1c(C)c2c(c(C)c1O)CCC(C)(COc1ccc(CC3SC(=O)NC3=O)cc1)O2 (centres undefined)", "inactive"),
    ("CCCC[C@H]1CN(CC2CCOCC2)C(=O)OC12CCN(C1(C)CCN(C(=O)c3c(C)ncnc3C)CC1)CC2", "inactive"),
    ("CC(C)NCC(O)c1ccc(O)c(O)c1 (centres undefined)", "active"),
    ("CCCCC(CC)CO (centres undefined)", "inactive"),
    ("CC(C)(C)c1ccccc1", "inactive"),
    ("CC(C)c1cccc(C(C)C)c1", "inactive"),
    ("NC1CCCCC1", "inactive"),
    ("O=C(O)c1[nH]n(-c2ccc(S(=O)(=O)O)cc2)c(=O)c1N=Nc1ccc(S(=O)(=O)O)cc1", "inactive"),
    ("CN(C)C(=O)NC1(c2ccccc2)CCN(CCC[C@]2(c3ccc(Cl)c(Cl)c3)CCCN(C(=O)c3ccccc3)C2)CC1", "inactive"),
    ("O=[Si]=O", "inactive"),
    ("CCCCCCCCCCCCCCCCO", "inactive"),
    ("CC(=O)O", "inactive"),
    ("N[C@@H](Cc1c[nH]c2ccccc12)C(=O)O", "inactive"),
    ("Oc1ccc(O)cc1", "inactive"),
    ("CCCCC(CC)COP(=O)(OCC(CC)CCCC)OCC(CC)CCCC (centres undefined)", "inactive"),
    ("C=CCc1ccc(OC)c(OC)c1", "inactive"),
    ("CC(=O)OCC(COC(C)=O)OC(C)=O", "inactive"),
    ("CC(C)(O)c1ccc(CNC(=O)c2cccnc2Oc2ccc(F)cc2)cc1", "inactive"),
    ("OCC(O)CO", "inactive"),
    ("Nc1nc(Cl)nc2c1ncn2[C@H]1C[C@H](O)[C@@H](CO)O1", "active"),
    ("S=c1[nH]c2ccccc2s1", "inactive"),
    ("CCc1nc(N)nc(N)c1-c1ccc(Cl)cc1", "active"),
    ("CN(C)CCCN1c2ccccc2Sc2ccc(Cl)cc21", "active"),
    ("CCC(C)N(C)C(=O)c1cc2ccccc2c(-c2ccccc2Cl)n1 (centres undefined)", "inactive"),
    ("Cc1ccc(C(C)(C)C)c(O)c1", "inactive"),
    ("Oc1ccccc1O", "inactive"),
    ("O=C(O)CC(O)(CC(=O)O)C(=O)O", "inactive"),
]
